These data points were gathered from patent US20090318491A1.

Below: a set of entries, each annotated with reported Ki.
- system: α3β4* nAChR (Bos taurus, UniProt Q07263+Q8SPU6)
- Construct: 100 μL of the calf adrenal membrane protein fraction (60-70 μg)
- Sequence (Q07263 22-495): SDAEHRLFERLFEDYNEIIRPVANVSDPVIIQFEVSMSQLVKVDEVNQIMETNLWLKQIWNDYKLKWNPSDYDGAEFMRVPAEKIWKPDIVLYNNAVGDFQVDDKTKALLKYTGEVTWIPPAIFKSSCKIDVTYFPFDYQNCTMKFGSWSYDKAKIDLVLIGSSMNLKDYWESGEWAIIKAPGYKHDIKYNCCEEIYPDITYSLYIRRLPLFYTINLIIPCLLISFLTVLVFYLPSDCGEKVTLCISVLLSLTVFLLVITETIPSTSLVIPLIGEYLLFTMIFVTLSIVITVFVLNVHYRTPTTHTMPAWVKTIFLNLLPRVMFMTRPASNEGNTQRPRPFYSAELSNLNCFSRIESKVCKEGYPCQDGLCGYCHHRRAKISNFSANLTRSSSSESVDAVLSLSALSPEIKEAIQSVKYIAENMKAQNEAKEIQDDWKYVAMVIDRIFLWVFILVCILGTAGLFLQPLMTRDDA
- Sequence (Q8SPU6 20-496): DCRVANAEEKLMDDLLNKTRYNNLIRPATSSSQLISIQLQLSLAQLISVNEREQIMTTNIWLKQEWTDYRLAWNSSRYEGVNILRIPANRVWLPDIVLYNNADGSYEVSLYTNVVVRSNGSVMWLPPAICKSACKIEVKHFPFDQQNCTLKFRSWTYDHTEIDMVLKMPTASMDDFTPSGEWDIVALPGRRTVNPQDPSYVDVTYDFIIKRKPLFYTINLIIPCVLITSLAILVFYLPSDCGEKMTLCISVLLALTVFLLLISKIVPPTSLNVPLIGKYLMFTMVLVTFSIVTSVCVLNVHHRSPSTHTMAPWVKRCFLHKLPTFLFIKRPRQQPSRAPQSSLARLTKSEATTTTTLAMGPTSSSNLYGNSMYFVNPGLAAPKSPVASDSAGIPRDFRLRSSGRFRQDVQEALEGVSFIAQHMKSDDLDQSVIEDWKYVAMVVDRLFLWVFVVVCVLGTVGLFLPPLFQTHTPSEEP
- assay_comment: biochemical

Worked examples follow.
# compound, system, Ki
data = [
    ("O=c1ccc(-c2cccc(F)c2)c2n1C[C@@H]1CNC[C@H]2C1 [109e, 5-(3′-Fluoro-phenyl)-cytisine]", "α3β4* nAChR (Bos taurus, UniProt Q07263+Q8SPU6)", "> 2 µM"),
    ("O=c1ccc(-c2cccc(Cl)c2)c2n1C[C@@H]1CNC[C@H]2C1 [108e, 5-(3′-Chloro-phenyl)-cytisine]", "α3β4* nAChR (Bos taurus, UniProt Q07263+Q8SPU6)", "> 10 µM"),
    ("O=c1ccc(-c2cccc(-c3ccccc3)c2)c2n1C[C@@H]1CNC[C@H]2C1 [110e, 5-(Biphenyl-3′-yl)-cytisine]", "α3β4* nAChR (Bos taurus, UniProt Q07263+Q8SPU6)", "> 10 µM"),
]

// Ki lookup, key: O=c1ccc(-c2cccc([N+](=O)[O-])c2)c2n1C[C@@H]1CNC[C@H]2C1 [104e, 5-(3′-Nitro-phenyl)-cytisine] 0.481 µM

// Ki lookup, key: O=c1c(-c2cccc(C(F)(F)F)c2)ccc2n1C[C@@H]1CNC[C@H]2C1 [96e, 3-(3′-Trifluoromethyl-phenyl)-cytisine] 3.7 µM

// Ki lookup, key: O=c1c(-c2cccc(Cl)c2)ccc2n1C[C@@H]1CNC[C@H]2C1 [98e, 3-(3′-Chloro-phenyl)-cytisine] > 10 µM

* * *

- system: α4β2* nAChR (Rattus norvegicus, UniProt P09483+P12390)
- Construct: Frozen rat brains were thawed slowly before the preparation of the P2 rat brain membrane fraction
- Sequence (P12390 25-500): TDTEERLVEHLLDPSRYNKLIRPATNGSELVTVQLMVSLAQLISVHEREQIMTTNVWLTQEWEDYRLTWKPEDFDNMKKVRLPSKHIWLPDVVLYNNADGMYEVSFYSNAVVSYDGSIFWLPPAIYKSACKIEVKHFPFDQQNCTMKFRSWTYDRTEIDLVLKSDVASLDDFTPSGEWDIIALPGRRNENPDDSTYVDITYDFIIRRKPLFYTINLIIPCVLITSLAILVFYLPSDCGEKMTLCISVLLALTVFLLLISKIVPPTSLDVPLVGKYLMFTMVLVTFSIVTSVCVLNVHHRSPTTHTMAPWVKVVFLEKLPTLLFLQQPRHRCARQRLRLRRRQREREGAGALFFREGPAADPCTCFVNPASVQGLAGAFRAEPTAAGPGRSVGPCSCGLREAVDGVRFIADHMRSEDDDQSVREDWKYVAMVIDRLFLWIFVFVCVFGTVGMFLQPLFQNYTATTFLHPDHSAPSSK
- Sequence (P09483 31-630): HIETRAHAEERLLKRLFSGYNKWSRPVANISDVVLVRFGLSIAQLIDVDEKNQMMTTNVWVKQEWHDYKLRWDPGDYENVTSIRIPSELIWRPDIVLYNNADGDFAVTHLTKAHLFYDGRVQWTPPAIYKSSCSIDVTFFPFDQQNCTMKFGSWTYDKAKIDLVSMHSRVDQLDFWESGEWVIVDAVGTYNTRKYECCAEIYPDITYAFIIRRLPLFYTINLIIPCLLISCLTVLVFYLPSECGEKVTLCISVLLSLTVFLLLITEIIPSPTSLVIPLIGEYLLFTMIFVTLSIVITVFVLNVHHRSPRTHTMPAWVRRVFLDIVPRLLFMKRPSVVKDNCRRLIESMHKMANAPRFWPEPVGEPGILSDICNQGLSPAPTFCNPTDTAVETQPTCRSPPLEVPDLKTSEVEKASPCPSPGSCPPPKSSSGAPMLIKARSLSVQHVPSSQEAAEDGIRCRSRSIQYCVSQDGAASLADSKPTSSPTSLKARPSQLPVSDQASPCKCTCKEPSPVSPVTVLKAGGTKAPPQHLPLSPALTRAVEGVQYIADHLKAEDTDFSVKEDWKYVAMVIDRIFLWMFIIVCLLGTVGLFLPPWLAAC
- assay_comment: biochemical
pKi: −log10 of the molar value.
Give T when the value for pKi is at least 7. Give F when it is less.

Some entries whose results are on file:
# compound, class_name
records = [
    ("O=c1ccc(-c2cccc(-c3ccccc3)c2)c2n1C[C@@H]1CNC[C@H]2C1 [110e, 5-(Biphenyl-3′-yl)-cytisine]", "F"),
    ("Cc1cccc(-c2ccc3n(c2=O)C[C@@H]2CNC[C@H]3C2)c1 [95e, 3-(3′-Methyl-phenyl)-cytisine]", "T"),
]

Hi team, for O=c1c(-c2cccnc2)ccc2n1CC1CNCC2C1 (stereo not shown) [drawing 100] , is the recorded pKi at or above 7? T

Hi team, for O=c1c(-c2cccc(Cl)c2)ccc2n1C[C@@H]1CNC[C@H]2C1 [98e, 3-(3′-Chloro-phenyl)-cytisine] , is the recorded pKi at or above 7? F

* * *

- system: α4β2* nAChR (Rattus norvegicus, UniProt P09483+P12390)
- Construct: Frozen rat brains were thawed slowly before the preparation of the P2 rat brain membrane fraction
- assay_comment: biochemical
- Protocol: Preparation of Rat Brains Frozen rat brains were thawed slowly before the preparation of the P2 rat brain membrane fraction (30-60 min on ice, afterwards at room temperature). […] The buffer volume added was calculated on the basis of the wet weight in a ratio 1:2. […] A dilution row of 6-9 concentrations of the test compound was prepared. […] The scintillation vials were filled with scintillation cocktail (2 mL) and the radioactivity was measured using a liquid scintillation counter. […]
observable: pKi
Lab note: report pKi as minus log10 of the concentration in molar units, number only.

Worked examples follow.
# compound, measured_value
data = [
    ("O=c1c(-c2cccc([N+](=O)[O-])c2)ccc2n1C[C@@H]1CNC[C@H]2C1 [94e, 3-(3′-Nitro-phenyl)-cytisine]", 7.64),
    ("O=c1c(-c2cccc(-c3ccccc3)c2)ccc2n1C[C@@H]1CNC[C@H]2C1 [100e, 3-(Biphenyl-3′-yl)-cytisine]", 6.70),
    ("O=c1ccc(-c2cccc([N+](=O)[O-])c2)c2n1C[C@@H]1CNC[C@H]2C1 [104e, 5-(3′-Nitro-phenyl)-cytisine]", 8.43),
]

Now look at this one.
Report pKi for O=c1ccc(-c2ccccc2)c2n1C[C@@H]1CNC[C@H]2C1 [103e, 5-Phenyl-cytisine] tested on α4β2* nAChR (Rattus norvegicus, UniProt P09483+P12390). 7.35
